- Tested on: HCC-2998 colon
- protocol_summary: NCI-60 one-dose screen, 48 h
- stated_conditions: 10 µM unless noted
Compounds without any hit were thinned out: in the full panel of roughly 83,000, 20% have a hit. The source made the active and inactive calls. Rule for the calls: active = growth percent below 10; inactive = the rest.
Labels: active, inactive

{"columns": ["molecule", "classification"],
 "data": [
  ["Cc1nn(-c2ccccc2)c2nc3nc4c(c(N)c3c(-c3ccc(Cl)cc3)c12)CCC4", "inactive"],
  ["Cc1ccc2c(c1)c(Sc1ccc(C(=O)NO)cc1)c1n2CN(C)CC1", "inactive"],
  ["c1ccc(-c2n(Cc3ccc4ccccc4n3)c3ccccc3[n+]2Cc2ccc3ccccc3n2)cc1", "active"],
  ["Cn1cc(C(=O)NCCC(=N)N)cc1NC(=O)CN=C(N)N", "inactive"],
  ["c1ccc(-c2nc(N3CCOCC3)c3c4c(sc3n2)CCCCCC4)nc1", "inactive"],
  ["COC(=O)c1c2c(c(C)[n+]([O-])c1C)C(=O)C=C(NCc1ccc(F)cc1)C2=O", "active"],
  ["Cc1ccccc1-n1nnc(C(=O)Nc2nc(-c3ccccc3)c(-c3ccccc3)s2)c1C", "inactive"],
  ["COc1cc(/C=N/NC(=O)c2cnn3c2NC(c2ccccc2)C3)ccc1OC1CCCC1 (configuration not stated)", "inactive"],
  ["COc1cccc2c(=O)c3c(sc12)c(NCCN(C)C)nc1ccccc13", "inactive"],
  ["O=C(Nc1ccc(Cl)c(Cl)c1)NC(CO)(CO)CO", "inactive"],
  ["COc1ccc(C2CC(c3cc(OC)c(OC)c(OC)c3)=NN2c2ccc(S(N)(=O)=O)cc2)cc1 (configuration not stated)", "inactive"],
  ["COc1cc(C2=NN(c3ccc(S(N)(=O)=O)cc3)C(c3ccc(Cl)cc3)C2)cc(OC)c1OC (configuration not stated)", "inactive"]
]}

---

Listing: growth of selected compounds
- System: OVCAR-3 ovarian
- protocol_summary: NCI-60 one-dose screen, 48 h (100 = growth as untreated, 0 = no growth, -100 = all killed)
- stated_conditions: 10 µM unless noted
This is part of a sample that, as a whole, favours compounds with a hit. Of some 83,000 tested, about 20% had one in any assay.
measurement_type: growth (%)

{"columns": ["smiles_string", "experimental_value"],
 "data": [
  ["O=c1[nH]c(=S)[nH]c(=O)n1Cc1cccc2ccccc12", 113],
  ["COc1ccc(-n2ncc3c4nc(OC)c(S(=O)(=O)c5ccccc5)cc4ccc32)cc1", 77.2],
  ["Cc1cc(NS(=O)(=O)c2ccc(NC(=O)COc3ccc(-c4cc5ccccc5[nH]4)cc3)cc2)no1", -0.541],
  ["C[C@@H](Oc1cc(-c2cnn(C3CC4(CNC4)C3)c2)cnc1N)c1c(Cl)ccc(F)c1Cl", 63.2],
  ["COc1ncnc2c1ncn2C/C(Br)=C(\\Br)CCl", -94.2],
  ["Clc1ccc(C2=NN(c3ccccc3)[C@H](c3cn(-c4ccccc4)nc3-c3ccccc3)C2)cc1", 113]
]}

---

- Tested on: MOLT-4 leukemia
- protocol_summary: NCI-60 one-dose screen, 48 h (100 = growth as untreated, 0 = no growth, -100 = all killed)
- stated_conditions: 10 µM unless noted
This is part of a sample that, as a whole, favours compounds with a hit. Of some 83,000 tested, about 20% had one in any assay.
Returns true if the recorded growth is greater than or equal to 90%, and false otherwise.

{"columns": ["compound", "classification"],
 "data": [
  ["CCCCCCCC/C=C\\CCCCCCCCOc1cccc(CC(=O)NCC[N+](C)(C)C)c1", "true"],
  ["COc1ccc(-c2c3c(N)c4c(nc3nc3c2c(C)nn3-c2ccccc2)CCCCC4)cc1", "false"],
  ["O=C(c1ccc2ncc(-c3nc(NC4CC4)ncc3F)n2c1)N1CCOCC1", "false"],
  ["CC(C)(C)[Si](C)(C)OC1[C@@H](COC(=O)NC(=O)CCl)O[C@@H](n2cnc3c(N)ncnc32)[C@H]1O[Si](C)(C)C(C)(C)C (stereo partly specified)", "false"],
  ["O=c1c2c(=NCCN3CCCC3)cc3c(=O)n(CCCN4CCOCC4)c(=O)c4c(-c5ccc(CN6CCCC6)cc5)cc(c(O)n1CCCN1CCOCC1)c2c4-3", "false"],
  ["COc1ccc(-c2nn(-c3ccc(NC(=O)c4ccc(Cl)c(Cl)c4)cc3)cc2-c2ccncc2)cc1Cl", "false"],
  ["COc1ccc(S(=O)(=O)c2ccc(C(N)=O)cc2)cc1NC(=O)c1[nH]c(C)c2c1CCCCC2=O", "false"],
  ["COc1ccc(/C=C(\\C#N)c2cc3ccccc3n2C)cc1", "false"],
  ["CCCCc1ccc(NC(=O)C(F)(F)F)cc1", "false"],
  ["O=C(O)c1ccccc1Oc1cc(-c2ccco2)nc(OCCBr)n1", "true"],
  ["COc1ccc(-c2c3c(N)c4c(nc3nc3c2c(C)nn3-c2ccccc2)CCCC4)cc1", "false"],
  ["COc1ccc(-c2nc3sccn3c2/C=C/C(=O)c2cc(OC)c(OC)c(OC)c2)cc1OC", "false"],
  ["c1ccc(-c2n(Cc3ccc4ccccc4c3)c3ccccc3[n+]2Cc2ccc3ccccc3c2)cc1", "false"],
  ["O=C(Nc1ccc(Cl)c(Cl)c1)NC(CO)(CO)CO", "true"],
  ["O=C1NC(=O)C2(CCCC2C(=O)O)N1 (stereo unspecified)", "true"],
  ["O=C(N/N=C/c1ccc2c(c1)OCO2)c1cnn2c1NC(c1ccccc1)C2 (stereo unspecified)", "false"],
  ["O=C(CCc1nnc2sc(-c3ccccc3)nn12)c1nc2ccccc2[nH]1", "false"],
  ["N#C/C(=C\\c1ccc[nH]1)c1cc2ccccc2[nH]1", "false"],
  ["O=[N+]([O-])c1ccc(O)c2ncccc12", "false"],
  ["COc1ccc(-c2nc(Nc3ccc(F)cc3)nc(Nc3ccc4c(c3)nc(C)n4Cc3ccccc3)n2)cc1", "false"],
  ["O=c1c2c(=NCCN3CCCC3)cc3c(=O)n(CCCN4CCOCC4)c(=O)c4ccc(c(O)n1CCCN1CCOCC1)c2c4-3", "false"],
  ["COc1ccc(Nc2[nH]n(C3=Nc4ccccc4Sc4ccccc43)c(=O)c2C#N)cc1", "false"],
  ["CS(=O)(=O)Nc1cccc(C(=O)NCc2ccc(N3CCOCC3)cc2)c1", "true"]
]}

---

- System: SR leukemia
- protocol_summary: NCI-60 one-dose screen, 48 h (100 = growth as untreated, 0 = no growth, -100 = all killed)
- stated_conditions: 10 µM unless noted
The panel holds about 83,000 compounds, 20% with a hit somewhere; the sample as a whole holds those more often. Activity calls are given as the source filed them. The calls were made as follows: active = growth percent below 10; inactive = the rest.

{"columns": ["compound", "target_or_system", "growth"],
 "data": [
  ["CCCCc1ccc(C(O)(CCN2CC3CCC(CC3)C2)c2ccccc2)cc1 (stereo not drawn)", "SR leukemia", "68% (inactive)"],
  ["O=S(=O)(Nc1ccc(Cl)c(Cl)c1)c1ccc(-c2cnc(C3CC3)o2)cc1", "SR leukemia", "43.7% (inactive)"],
  ["O=C1CC2c3cc(-c4cc5ccccc5o4)ccc3CCN2C(=O)N1c1ccccc1 (stereo not drawn)", "SR leukemia", "57.6% (inactive)"],
  ["O=C(NCc1ccc(F)cc1)C1CN(c2ccc(Cl)cc2)N(c2ccc(Cl)cc2)C1=O (stereo not drawn)", "SR leukemia", "24.3% (inactive)"],
  ["CCOC(=O)C(CC(c1ccccc1)N1CCCCC1)[N+](=O)[O-] (stereo not drawn)", "SR leukemia", "77.7% (inactive)"],
  ["COc1ccc(/C=C2\\CN(Cc3cn(CCCNc4ccnc5cc(Cl)ccc45)nn3)C/C(=C\\c3ccc(OC)cc3)C2=O)cc1", "SR leukemia", "-6.55% (active)"],
  ["COc1ccc(C2SC(C)C(=O)N2CCc2cccs2)cc1OC (stereo not drawn)", "SR leukemia", "63.8% (inactive)"],
  ["Cc1cccc2c(=O)c3c(sc12)c(NCCCN)nc1ccccc13", "SR leukemia", "-5.48% (active)"],
  ["Cn1c(=O)c2c(-c3ccccc3F)n(-c3ccc4c(c3)OCO4)cc2n(C)c1=O", "SR leukemia", "68.1% (inactive)"],
  ["Cc1ccccc1-n1nnc(C(=O)Nc2ccc(-c3ccccc3)cn2)c1C", "SR leukemia", "16% [50 µM] (inactive)"],
  ["C[C@@H](Oc1cc(-c2cnn(C3CC4(CNC4)C3)c2)cnc1N)c1c(Cl)ccc(F)c1Cl", "SR leukemia", "-24.6% (active)"],
  ["COc1cc(C(=O)N(C(C)C)C2CCCCC2)cc(OC)c1OC", "SR leukemia", "99.5% (inactive)"],
  ["FC(F)(F)Oc1ccc2c(c1)C[C@H]1C[C@@H](c3ccoc3)N2O1", "SR leukemia", "98.3% (inactive)"],
  ["NC(=O)c1cc(Cl)ccc1NC(=O)COc1ccccc1", "SR leukemia", "23% (inactive)"],
  ["Cc1cc(=O)[nH]n1-c1cc(Cl)ccc1N", "SR leukemia", "96.6% (inactive)"],
  ["COc1ccc(/C=N\\N2CCOCC2)cc1OC1CCCC1", "SR leukemia", "101% (inactive)"],
  ["O=C(Nc1nc2ccccc2[nH]1)C(=O)Nc1nc2ccccc2[nH]1", "SR leukemia", "89.6% (inactive)"],
  ["N#Cc1c(O)c2c(c(O)c1C#N)C(=O)c1ccccc1C2=O", "SR leukemia", "15.4% (inactive)"],
  ["CCC(=O)Nc1nnc(Cc2ccc(OC)c(OC)c2)s1", "SR leukemia", "-18.1% (active)"],
  ["COc1ccccc1/C=C/C(=O)/C=C/c1ccccc1O", "SR leukemia", "-61.2% (active)"],
  ["Cc1nc2cc(Nc3nc(Nc4ccc(F)cc4)nc(N4CCCC4)n3)ccc2n1Cc1ccccc1", "SR leukemia", "-27.9% (active)"],
  ["CCCCCCCCCCCC(=O)[O][Sn]([CH2]CCC)([CH2]CCC)[CH2]CCC", "SR leukemia", "-42.7% (active)"],
  ["COc1cc(OCc2cccc(-c3ccc(C(O)c4nccs4)cc3)c2C)cc(OC)c1C=O (stereo not drawn)", "SR leukemia", "53.1% (inactive)"],
  ["CC(=O)Nc1ccccc1-c1n[nH]c(=O)[nH]c1=O", "SR leukemia", "107% (inactive)"],
  ["NC(=O)c1cccc(-n2ccc3cc(NC(=O)Nc4ccc(Cl)c(Cl)c4)ccc32)n1", "SR leukemia", "45.5% (inactive)"],
  ["COc1cccc(C2C3=C(COC3=O)N(CCO)c3cc4c(cc32)CCC4)c1 (stereo not drawn)", "SR leukemia", "29.4% (inactive)"],
  ["COc1cc2oc(-c3ccc(O)cc3)cc(=O)c2c(O)c1I", "SR leukemia", "79.3% (inactive)"],
  ["Brc1ccccc1Nc1ccc2nnc(-c3ccncc3)n2n1", "SR leukemia", "61.7% (inactive)"],
  ["CCSc1nnc2c3cc(Br)ccc3n(C)c2n1", "SR leukemia", "92.7% (inactive)"],
  ["O=C1CC(c2ccsc2)c2snc(-c3ccc(Cl)cc3)c2N1 (stereo not drawn)", "SR leukemia", "20.9% (inactive)"],
  ["COc1cccc(C2CC(=O)Nc3cc4c(cc32)CCC4)c1OC (stereo not drawn)", "SR leukemia", "3.06% (active)"],
  ["CN1CCc2c(c3ccccc3c3ccccc23)C1", "SR leukemia", "20.5% (inactive)"],
  ["O/N=C/c1cccs1", "SR leukemia", "96.8% (inactive)"]
]}
